The compounds listed here are annotated with their inhibition.
Target: Adenosine receptor A1 (Homo sapiens) (UniProt P30542)
Sequence (whole entry): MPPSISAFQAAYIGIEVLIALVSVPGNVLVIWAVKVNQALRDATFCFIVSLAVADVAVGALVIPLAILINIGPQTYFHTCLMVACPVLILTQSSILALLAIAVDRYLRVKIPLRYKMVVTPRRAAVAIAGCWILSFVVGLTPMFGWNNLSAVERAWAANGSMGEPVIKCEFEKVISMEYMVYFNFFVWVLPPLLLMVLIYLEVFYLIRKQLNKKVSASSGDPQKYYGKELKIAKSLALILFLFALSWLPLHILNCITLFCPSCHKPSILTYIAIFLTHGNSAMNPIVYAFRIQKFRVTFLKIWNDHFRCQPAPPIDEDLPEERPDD
Assay: Displacement of [3H]CPX from human adenosine A1 receptor expressed in CHOK1 cells at 10 uM relative to control
Type: cell-based
Settings: CHO-K1

| Smiles representation | Measured target | inhibition |
| --- | --- | --- |
| CCOC(=O)c1c(N)sc(-c2ccc(-c3ccncc3)cc2)c1-c1cccc(C(F)(F)F)c1 | Adenosine receptor A1 (Homo sapiens) (UniProt P30542) | 91% |
| Nc1sc(-c2ccc(Cl)cc2)c(-c2cccc(C(F)(F)F)c2)c1C(=O)c1ccccc1 | Adenosine receptor A1 (Homo sapiens) (UniProt P30542) | 59.1% |
| Nc1scc(-c2cccc(C(F)(F)F)c2)c1C(=O)c1ccccc1 | Adenosine receptor A1 (Homo sapiens) (UniProt P30542) | 61.1% |
| CCOC(=O)c1c(N)sc(-c2ccc(C(F)(F)F)cc2)c1-c1cccc(C(F)(F)F)c1 | Adenosine receptor A1 (Homo sapiens) (UniProt P30542) | 48.5% |
| CCOC(=O)c1c(N)sc(-c2ccc([N+](=O)[O-])cc2)c1-c1cccc(C(F)(F)F)c1 | Adenosine receptor A1 (Homo sapiens) (UniProt P30542) | 71.4% |
| CC(=O)c1ccc(-c2sc(N)c(C(=O)c3ccccc3)c2-c2cccc(C(F)(F)F)c2)cc1 | Adenosine receptor A1 (Homo sapiens) (UniProt P30542) | 25.6% |
| CCOC(=O)c1c(N)sc(-c2cccc(C(C)=O)c2)c1-c1cccc(C(F)(F)F)c1 | Adenosine receptor A1 (Homo sapiens) (UniProt P30542) | 68.9% |
| CCOC(=O)c1c(N)sc(-c2ccc(C(C)=O)cc2)c1-c1cccc(C(F)(F)F)c1 | Adenosine receptor A1 (Homo sapiens) (UniProt P30542) | 64.6% |
| CCOC(=O)c1c(N)sc(-c2ccc(Cl)cc2)c1-c1cccc(C(F)(F)F)c1 | Adenosine receptor A1 (Homo sapiens) (UniProt P30542) | 58.4% |
| Nc1sc(-c2ccccc2)c(-c2cccc(C(F)(F)F)c2)c1C(=O)c1ccccc1 | Adenosine receptor A1 (Homo sapiens) (UniProt P30542) | 82.4% |
| Nc1sc(Br)c(-c2cccc(C(F)(F)F)c2)c1C(=O)c1ccccc1 | Adenosine receptor A1 (Homo sapiens) (UniProt P30542) | 47.5% |
| CCOC(=O)c1c(-c2cccc(C(F)(F)F)c2)csc1N | Adenosine receptor A1 (Homo sapiens) (UniProt P30542) | 93% |
| CC(=O)c1cccc(-c2sc(N)c(C(=O)c3ccccc3)c2-c2cccc(C(F)(F)F)c2)c1 | Adenosine receptor A1 (Homo sapiens) (UniProt P30542) | 33.1% |
| CCOC(=O)c1c(N)sc(-c2ccc(OC)cc2)c1-c1cccc(C(F)(F)F)c1 | Adenosine receptor A1 (Homo sapiens) (UniProt P30542) | 81.5% |
| Nc1sc(Cl)c(-c2cccc(C(F)(F)F)c2)c1C(=O)c1ccccc1 | Adenosine receptor A1 (Homo sapiens) (UniProt P30542) | 87.1% |
| Nc1sc(-c2ccc([N+](=O)[O-])cc2)c(-c2cccc(C(F)(F)F)c2)c1C(=O)c1ccccc1 | Adenosine receptor A1 (Homo sapiens) (UniProt P30542) | 34.8% |
| COc1ccc(-c2sc(N)c(C(=O)c3ccccc3)c2-c2cccc(C(F)(F)F)c2)cc1 | Adenosine receptor A1 (Homo sapiens) (UniProt P30542) | 65.2% |
| CCOC(=O)c1c(N)sc(-c2ccccc2)c1-c1cccc(C(F)(F)F)c1 | Adenosine receptor A1 (Homo sapiens) (UniProt P30542) | 83.6% |
